# Test system: ML-2;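 note: growth inhibition of ML-2 cells, measured with a cell viability readout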
# Test Name: cells
# Assay type: functional, cell-based, Homo sapiens
# Measurement Conditions: Homo sapiens, ML-2
# Description: SANGER: Inhibition of human ML-2 cell growth in a cell viability assay.
Metric: IC50

Observe how each entry below is paired with its result.
Molecule Smiles	IC50
CN(NC(=O)CC(=O)NN(C)C(=S)c1ccccc1)C(=S)c1ccccc1	> 0.2 µM
CN(C)CCOc1ccc(-c2nc(-c3ccncc3)c(-c3ccc4c(c3)CC/C4=N\O)[nH]2)cc1	> 5 µM
O=S(=O)(O)c1ccc2cc(/N=N/c3cc(S(=O)(=O)O)c4cccnc4c3O)ccc2c1	> 16 µM
COc1ccc(-c2cc3nccn3c(Nc3ncccc3C(N)=O)n2)cc1OC	> 8 µM

stdin: State the recorded IC50 for this entry: NC(=O)Nc1cc(-c2cccc(F)c2)sc1C(=O)N[C@H]1CCCNC1
stdout: 0.125 µM

stdin: # input compound: Cc1ccc(NC(=O)c2ccc(CN3CCN(C)CC3)cc2)cc1Nc1nccc(-c2cccnc2)n1 ; wanted: its IC50
stdout: > 2 µM

stdin: Any idea what its IC50 is? The compound is NC1(c2ccc(-c3nc4ccn5c(=O)[nH]nc5c4cc3-c3ccccc3)cc2)CCC1
stdout: > 4 µM

stdin: Entry under review: COc1ccc(N(C(=O)Oc2c(C)cccc2C)c2ccnc(Nc3ccc(N4CCN(C)CC4)cc3)n2)c(OC)c1 . Reported IC50?
stdout: > 5.12 µM

stdin: Fill blank: measured IC50 of the compound CC1=C(/C=C/C(C)=C/C=C/C(C)=C/C(=O)O)C(C)(C)CCC1 is ____.
stdout: 4 µM
